- protocol-details: Study of Chromogenic Substrate Properties: pKa (Table D)
- Assay type: physicochemical
readout-kind: pKa
A bare number is all that is needed in reply.

>>> readout_value("CC[N+]1=C(C=Cc2ccc(O[C@@H]3O[C@H](CO)[C@H](O)[C@H](O)[C@H]3O)c3ccccc23)C(C)(C)c2ccccc21 [Compound 17]")
6

Task: Which pKa is listed for CC[n+]1c(C=Cc2ccc(O[C@@H]3O[C@H](CO)[C@H](O)[C@H](O)[C@H]3O)c3ccccc23)ccc2ccccc21 [Compound 26] ?
Result: 6.5

Task: Which pKa is listed for CC[N+]1=C(C=Cc2ccc(O[C@@H]3O[C@H](CO)[C@H](O)[C@H](O)[C@H]3O)cc2)C(C)(C)c2ccccc21 [Compound 16] ?
Result: 7.3

Task: Which pKa is listed for CC[n+]1c(C=Cc2ccc(O[C@@H]3O[C@H](CO)[C@H](O)[C@H](O)[C@H]3O)c3ccccc23)sc2cc(OC)ccc21 [Compound 21] ?
Result: 6.6

Task: Which pKa is listed for C[n+]1c(/C=C/c2ccc(O[C@@H]3O[C@H](CO)[C@H](O)[C@H](O)[C@H]3O)c3ccccc23)sc2ccc3ccccc3c21 [Compound 22] ?
Result: 7

Task: Which pKa is listed for CC[N+]1=C(C=Cc2ccc3cc(O[C@@H]4O[C@H](CO)[C@H](O)[C@H](O)[C@H]4O)ccc3c2)C(C)(C)c2ccccc21 [Compound 18] ?
Result: 8.3

Task: Which pKa is listed for CC[n+]1c(C=Cc2ccc(O[C@@H]3O[C@H](CO)[C@H](O)[C@H](O)[C@H]3O)cc2)sc2ccccc21.[Cl-] [Compound 19] ?
Result: 7.6

Task: Which pKa is listed for Cc1ccc2oc(C=Cc3ccc(O[C@@H]4O[C@H](CO)[C@H](O)[C@H](O)[C@H]4O)c4ccccc34)[n+](CCC(=O)O)c2c1 [Compound 25] ?
Result: 6.6
